READOUT LABEL: melting point

Ask: Return reported melting point; argument: `COc1ccc(-c2nc(N3CCNCC3)sc2Cc2ccccc2)cc1.Cl.Cl.Cl`
Reply: 111 to 112 °C

Ask: Item under review: `COc1ccc(-c2nc(N)sc2Cc2ccc(F)cc2)cc1` . Reported melting point?
Reply: 199 to 201 °C

Ask: # query: melting point of entry `COc1ccc(-c2nc(NC(=O)c3ccc(C#N)cc3)sc2Cc2ccc([N+](=O)[O-])cc2)cc1`
Reply: 190 to 192 °C

Ask: Requested read-out: melting point. Entry: `O=C(Nc1nc(-c2ccc(O)cc2)c(Cc2ccccc2)s1)c1cccc(O)c1`
Reply: 233 to 234 °C

Ask: Report melting point for `COc1ccc(-c2nc(NC(=O)c3ccc(C#N)cc3)sc2Cc2ccccc2)cc1` please.
Reply: 194 to 196 °C

Ask: Requested read-out: melting point. Entry: `Nc1nc(-c2ccc(F)cc2)c(Cc2ccc([N+](=O)[O-])cc2)s1`
Reply: 217 to 218 °C

Ask: Recorded melting point for `COc1ccc(-c2nc(N)sc2Cc2ccc([N+](=O)[O-])cc2)cc1` , please?
Reply: 209 to 210 °C

Ask: Entry `COc1ccc(-c2nc(NC(=O)c3ccccc3OC)sc2Cc2ccccc2)cc1` has what melting point?
Reply: 147 to 148 °C

Ask: Would you mind telling me what melting point value was observed for `COc1ccc(-c2nc(N)sc2Cc2ccccc2)cc1` ?
Reply: 177 to 178 °C

Ask: Fill blank: measured melting point of the compound `COc1ccc(-c2nc(NC(=O)c3ccccc3)sc2Cc2ccccc2)cc1` is ____.
Reply: 146 to 147 °C

Ask: Given the entry `COc1ccc(-c2nc(NC(=O)c3ccc(OC)c(OC)c3)sc2Cc2ccc([N+](=O)[O-])cc2)cc1` , report its measured melting point.
Reply: 106 to 108 °C

Ask: Tell me the measured melting point of `COc1ccc(-c2nc(NC(=O)c3cc(OC)c(OC)c(OC)c3)sc2CCc2ccccc2)cc1` , please.
Reply: 78 to 79 °C

Ask: Would you kindly share the measured melting point for `COc1ccc(-c2nc(N)sc2CCc2ccccc2)cc1` ?
Reply: 143 to 144 °C

Ask: If you can, please state the reported melting point value of `CCCCc1sc(NC(=O)c2ccc(OC)c(OC)c2)nc1-c1ccc(OC)cc1` .
Reply: 150 to 151 °C

Ask: Query (compound): `O=C(Nc1nc(-c2ccc(O)cc2)c(Cc2ccccc2)s1)c1cc(O)cc(O)c1` ; field requested: melting point
Reply: 262 to 263 °C

Ask: Give its melting point value. Item: `N#Cc1ccc(C(=O)Nc2nc(-c3ccc(F)cc3)c(Cc3ccc([N+](=O)[O-])cc3)s2)cc1`
Reply: 244 to 245 °C

Ask: Reported melting point, compound `COc1ccc(C(=O)Nc2nc(-c3ccc(F)cc3)c(Cc3ccc([N+](=O)[O-])cc3)s2)cc1OC` : ____
Reply: 128 to 129 °C

Ask: Quick check: melting point of `COc1ccc(C(=O)Nc2nc(-c3ccc(O)cc3)c(Cc3ccccc3)s2)cc1` ?
Reply: 124 to 125 °C

Ask: Which measured melting point value corresponds to `O=C(Nc1nc(-c2ccc(O)cc2)c(Cc2ccc([N+](=O)[O-])cc2)s1)c1ccc(O)c(O)c1` ?
Reply: 195 to 196 °C

Ask: Consider the compound shown here: `O=C(Nc1nc(-c2ccc(O)cc2)c(Cc2ccccc2)s1)c1ccccc1O` What is its recorded melting point?
Reply: 279 to 280 °C

Ask: Which melting point is listed for `O=C(Nc1nc(-c2ccc(F)cc2)c(Cc2ccc([N+](=O)[O-])cc2)s1)c1ccc(O)c(O)c1` ?
Reply: 276 to 278 °C

Ask: Please give the measured melting point for this compound: `COc1ccc(-c2nc(NC(=O)c3cc(OC)c(OC)c(OC)c3)sc2Cc2ccccc2)cc1`
Reply: 157 to 158 °C

Ask: So what's the measured melting point for this one? `O=C(Nc1nc(-c2ccc(O)cc2)c(Cc2ccc(F)cc2)s1)c1ccc(O)c(O)c1`
Reply: 154 to 155 °C

Ask: # melting point lookup, item `Oc1ccc(-c2nc(N3CCNCC3)sc2Cc2ccccc2)cc1`
Reply: 222 to 223 °C

Ask: Quick one: melting point of `COc1ccc(-c2nc(NC(=O)c3cccc(OC)c3)sc2Cc2ccccc2)cc1` ?
Reply: 71 to 72 °C

Ask: Could you share which melting point value was measured for `COc1ccc(-c2nc(N(S(=O)(=O)c3ccc(C)cc3)S(=O)(=O)c3ccc(C)cc3)sc2Cc2ccccc2)cc1` ?
Reply: 182 to 183 °C

Ask: Sample `Oc1ccc(-c2nc(CCc3ccc(O)c(O)c3)sc2Cc2ccccc2)cc1` — what was its melting point?
Reply: 177 to 178 °C

Ask: For `Cc1sc(NC(=O)c2cc(O)c(O)c(O)c2)nc1-c1ccc(O)cc1` , what is its reported melting point?
Reply: 262 to 263 °C

Ask: Requested field: melting point. Item: `O=C(Nc1nc(-c2ccc(O)cc2)c(CC2CCCCC2)s1)c1cc(O)c(O)c(O)c1`
Reply: 238 to 239 °C
